Experiment: In vivo plasma pharmacokinetics after i.v. and p.o. administration of P8-D6
Parameters: species or system Sprague–Dawley rats
Conditions: male, Sprague-Dawley, rat, plasma, iv, 10 mg/kg body weight, i.v.; read-out: Terminal t 1/2
Method: The plasma concentration–time profiles and pharmacokinetic parameters of P8-D6 after p.o. and i.v. administration are presented in Figure B and Table . Compartment models were used to calculate the pharmacokinetic parameters and plasma curves. […] To cope with the overlapping curves of absorption and elimination after p.o. administration, compartmental models are used (supplied as Figure S4B,D). […] A fictitious initial plasma concentration, c 0/p.o. = 2.21 μM, was calculated. […]

# smiles-notation, half-life, h
measured = [
    ("COc1cc(-c2cc3ccncc3c3nc(OCCN(C)C)c4cnccc4c23)cc(OC)c1OC", 5.78),
]

###

Biological target: P-GP (ABCB1) (Homo sapiens, UniProt P08183)
Sequence (P08183 whole entry, species assumed): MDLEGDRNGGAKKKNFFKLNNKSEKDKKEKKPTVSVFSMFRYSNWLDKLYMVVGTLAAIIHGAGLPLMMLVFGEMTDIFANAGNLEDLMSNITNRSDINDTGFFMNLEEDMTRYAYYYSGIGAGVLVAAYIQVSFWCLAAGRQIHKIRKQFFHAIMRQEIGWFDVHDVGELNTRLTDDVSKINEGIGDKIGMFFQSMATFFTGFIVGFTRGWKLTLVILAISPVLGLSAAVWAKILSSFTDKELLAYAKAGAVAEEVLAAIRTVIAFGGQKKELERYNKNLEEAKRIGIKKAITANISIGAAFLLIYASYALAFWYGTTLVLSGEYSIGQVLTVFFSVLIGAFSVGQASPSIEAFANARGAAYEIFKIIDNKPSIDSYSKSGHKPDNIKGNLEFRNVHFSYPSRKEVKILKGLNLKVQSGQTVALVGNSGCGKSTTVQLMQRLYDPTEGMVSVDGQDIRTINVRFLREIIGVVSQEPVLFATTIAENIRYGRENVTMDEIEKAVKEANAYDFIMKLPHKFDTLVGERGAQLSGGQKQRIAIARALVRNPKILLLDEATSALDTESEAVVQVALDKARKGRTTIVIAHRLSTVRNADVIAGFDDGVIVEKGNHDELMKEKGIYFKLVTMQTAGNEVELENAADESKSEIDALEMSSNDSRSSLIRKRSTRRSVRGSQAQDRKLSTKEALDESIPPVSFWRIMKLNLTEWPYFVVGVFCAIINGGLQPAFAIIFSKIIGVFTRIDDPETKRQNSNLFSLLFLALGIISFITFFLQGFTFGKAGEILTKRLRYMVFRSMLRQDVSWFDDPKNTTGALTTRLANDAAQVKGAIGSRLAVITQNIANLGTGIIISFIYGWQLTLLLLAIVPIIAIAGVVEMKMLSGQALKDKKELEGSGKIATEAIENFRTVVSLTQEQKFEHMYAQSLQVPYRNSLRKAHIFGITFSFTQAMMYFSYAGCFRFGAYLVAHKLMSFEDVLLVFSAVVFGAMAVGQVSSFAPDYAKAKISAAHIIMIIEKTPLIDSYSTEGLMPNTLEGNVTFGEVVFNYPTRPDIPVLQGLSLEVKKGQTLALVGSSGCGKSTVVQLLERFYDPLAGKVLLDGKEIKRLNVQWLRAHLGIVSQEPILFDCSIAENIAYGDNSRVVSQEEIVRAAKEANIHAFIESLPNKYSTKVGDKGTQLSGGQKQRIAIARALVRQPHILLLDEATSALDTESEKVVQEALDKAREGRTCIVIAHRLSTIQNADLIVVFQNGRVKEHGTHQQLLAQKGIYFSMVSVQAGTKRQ
Test: Transporter inhibition, calcein-AM accumulation in MDCK cells (P-GP overexpression)
Details: intracellular accumulation of calcein-AM

# smiles-notation, IC50 / µM
rows = [
    ("COc1cc(-c2cc3ccncc3c3nc(OCCN(C)C)c4cnccc4c23)cc(OC)c1OC", 20.6),
]

###

Assay: In vivo plasma pharmacokinetics after i.v. and p.o. administration of P8-D6
Set-up: species or system Sprague–Dawley rats
Details: male, Sprague-Dawley, rat, plasma, po; p.o. 50 mg/kg BW; read-out: AUC0–10 h (converted)
test-readout: AUC(0-t) (µM·h)

# smiles-notation, unit-descriptor, obs-value
measured = [
    ("COc1cc(-c2cc3ccncc3c3nc(OCCN(C)C)c4cnccc4c23)cc(OC)c1OC", "µM·h", 8.03),
]

###

Experiment: In vivo plasma pharmacokinetics after i.v. and p.o. administration of P8-D6
Parameters: species or system Sprague–Dawley rats
Settings: male, Sprague-Dawley, rat, plasma, po, 50 mg/kg body weight, p.o.; read-out: Terminal t 1/2
test-readout: half-life (min)

# compound, unit-descriptor, obs-value
measured = [
    ("COc1cc(-c2cc3ccncc3c3nc(OCCN(C)C)c4cnccc4c23)cc(OC)c1OC [P8-D6]", "min", 518),
]

###

Molecular target: CYP2D6 (Homo sapiens)
Construct: host or cells: human liver microsomes (one value) / recombinant CYP enzyme (other value)
Sequence (P10635 whole entry): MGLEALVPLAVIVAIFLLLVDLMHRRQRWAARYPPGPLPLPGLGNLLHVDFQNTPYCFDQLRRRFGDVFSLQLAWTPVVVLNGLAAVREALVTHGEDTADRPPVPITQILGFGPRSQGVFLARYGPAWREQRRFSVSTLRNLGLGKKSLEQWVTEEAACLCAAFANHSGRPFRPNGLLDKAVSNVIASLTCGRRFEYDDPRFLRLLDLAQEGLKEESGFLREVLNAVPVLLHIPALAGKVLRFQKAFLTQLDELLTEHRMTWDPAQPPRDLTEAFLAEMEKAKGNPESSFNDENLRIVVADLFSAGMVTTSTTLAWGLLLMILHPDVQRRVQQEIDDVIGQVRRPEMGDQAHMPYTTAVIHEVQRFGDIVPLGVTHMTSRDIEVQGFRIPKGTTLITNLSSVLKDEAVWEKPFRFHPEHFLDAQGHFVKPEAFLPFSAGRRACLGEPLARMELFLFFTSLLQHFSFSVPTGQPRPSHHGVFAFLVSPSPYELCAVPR
Assay: In vitro CYP inhibition, marker substrate dextromethorphan
Assay type: in vitro ADME
Settings: HLM
test-readout: IC50 (µM)

# compound, tested-system, test-readout, obs-value
measured = [
    ("COc1cc(-c2cc3ccncc3c3nc(OCCN(C)C)c4cnccc4c23)cc(OC)c1OC [P8-D6]", "CYP2D6 (Homo sapiens)", "IC50", 285),
]

###

Target: CYP1A2 (Homo sapiens, UniProt P05177)
Construct: host or cells: human liver microsomes (one value) / recombinant CYP enzyme (other value)
Sequence (P05177 whole entry): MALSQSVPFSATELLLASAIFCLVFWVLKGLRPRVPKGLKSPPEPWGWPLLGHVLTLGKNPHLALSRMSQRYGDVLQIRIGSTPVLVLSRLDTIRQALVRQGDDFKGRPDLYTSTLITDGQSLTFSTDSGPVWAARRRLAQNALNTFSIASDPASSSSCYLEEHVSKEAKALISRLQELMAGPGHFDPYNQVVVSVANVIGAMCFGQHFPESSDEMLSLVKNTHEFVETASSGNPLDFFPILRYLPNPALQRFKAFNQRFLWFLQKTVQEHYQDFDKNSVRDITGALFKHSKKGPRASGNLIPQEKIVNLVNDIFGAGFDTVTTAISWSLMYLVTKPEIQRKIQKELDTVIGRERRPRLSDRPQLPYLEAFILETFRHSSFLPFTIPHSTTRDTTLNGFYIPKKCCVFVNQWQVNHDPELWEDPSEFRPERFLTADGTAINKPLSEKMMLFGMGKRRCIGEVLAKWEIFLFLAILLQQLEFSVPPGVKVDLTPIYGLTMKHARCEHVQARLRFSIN
Experiment: In vitro CYP inhibition, marker substrate phenacetin
Assay type: in vitro ADME
Conditions: recombinant CYP isoenzyme
test-readout: IC50

# smiles-notation, obs-value
measured = [
    ("COc1cc(-c2cc3ccncc3c3nc(OCCN(C)C)c4cnccc4c23)cc(OC)c1OC", "503 µM"),
]

###

Reported values of Cmax for individual entries
Assay: In vivo plasma pharmacokinetics after i.v. and p.o. administration of P8-D6
Parameters: species or system Sprague–Dawley rats
Settings: male, Sprague-Dawley, rat, plasma, iv, 10 mg/kg, after i.v. administration of P8-D6 10 mg/kg BW; read-out: c max/i.v. of metabolite in plasma
test-readout: Cmax (nM)

# compound, test-readout, obs-value
rows = [
    ("CNCCOc1nc2c3cnccc3cc(-c3cc(OC)c(OC)c(OC)c3)c2c2ccncc12 [P8-D6 mono]", "Cmax", 114),
    ("COc1cc(-c2cc3ccncc3c3nc(OCC[N+](C)(C)[O-])c4cnccc4c23)cc(OC)c1OC [P8-D6 N-oxide]", "Cmax", 228),
]
